Listing of recorded kon by entry.
- assay_system: alpha-synuclein fibrils (UniProt P37840 1-140)
- assay_explanation: SPR, captured mAb
property: kon (M⁻¹ s⁻¹)

| binder | property | observed_result |
| --- | --- | --- |
| ACI-8032-6307F1-Ab2 (antibody, V domains shown, mouse hybridoma mAb; VH/VL only; also called 6307F1H10) VH: QVQLQQSGAELARPGASVKLSCKASGYTFTSYGMSWVKQRTGQGLEWIGEIYPRSGNTYYNEKFKGKATLTSDKSSSTSYMELRSLTSEDSAVYFCASESYYGDYAWYFDVWGTGTTVTVSS VL: DVLMTQTPLSLPVSLGDQASISCRSSQSVVHSNGITYLEWYLQKPGQSPKLLIYKVSNRFSGVPDRFSGSGSGTYFTLKISRVEAEDLGVYYCFQGSHVPPTFGGGTKLEIK | kon | 26500 |
| ACI-7079-2601B6-Ab1 (antibody, V domains shown, mouse hybridoma mAb; VH/VL only; also called 2601B6D2; ACI-7079-26016NAbM) VH: EIQLQQSGAELVRPGASVKLSCTTSGFNIKDDYIHWVKQRPEQGLEWIGWIDPENGDTDYASKFQGKATITADTSSNTAYLHLSSLTSEDAAVYFCTTRGFGYWGQGTLVTVS VL: DIVMTQSHKFMSTSVGDRVSITCKASQDVGNVVAWYQQKPGQSPKLLIYWASSRHTGVPDRFTGSGSGTEFTLTISNVQSEDLADYFCQQYSSYPLTFGAGTKLELK | kon | 17400 |
